Test: reduction of polyQ htt aggregates in cells – imaging, exon1htt(103Q)mCFP cells, high-content imaging, primary screen (AID 483);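 further: compound exposure lasted 3 days before fixation; percent of the per-plate median nuclei count of sample wells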
Conditions: exon1htt(103Q)mCFP cell line, aggregate imaging, at 2 µM; measured here: cell count, toxicity
measurement label: nuclei count (%)

# molecule, measurement label, experimental value
data = [
    ("Cn1c(=O)[nH]c(=O)c2c1nc(N1CCCCC1)n2CCSc1ncccn1", "nuclei count", 93),
    ("CCCCOc1ccc(-c2nnn(C(C)(C)C(=O)OC)n2)cc1", "nuclei count", 67.8),
    ("O=C(CN1CCN(c2nc(-c3ccc(Cl)cc3)cs2)CC1)NCc1ccco1", "nuclei count", 90.1),
    ("COC(=O)c1ccc(CSc2nc3ccccc3s2)o1", "nuclei count", 126),
    ("COCc1cc(C)nc(SCC(=O)Nc2cccc(C)c2C)c1C#N", "nuclei count", 98),
    ("COC(=O)[C@H](CCSC)NC(=O)Nc1cc(C)ccc1C", "nuclei count", 90.6),
    ("CC(C)CN1C(=O)c2ccc(C(=O)Nc3nccs3)cc2C1=O", "nuclei count", 120),
    ("CCOC(=O)C1CCCN(S(=O)(=O)c2cccs2)C1 (stereo unspecified)", "nuclei count", 95.8),
    ("Cc1c(NC(=O)c2cnn3c2NC(c2ccco2)CC3C(F)(F)F)c(=O)n(-c2ccccc2)n1C (stereo unspecified)", "nuclei count", 101),
    ("CCCCn1c(SCc2ccc(Cl)cc2)nc2c1c(=O)[nH]c(=O)n2C", "nuclei count", 109),
    ("COc1ccccc1N1CCN(C(=O)CSc2nc3ncnc(N)c3[nH]2)CC1", "nuclei count", 110),
]
